FYI, the data here is from paper PMC8667730.

- assay target: TLR5 protein from pGEX-6p-1 (GST-His*10-TEV-TLR5, digested with TEV protease), used for SPR (silvery pomfret (Pampus argenteus))
- assay notes: SPR; BIAcore S200; TLR5 immobilised on an SA sensor chip; flaB proteins injected at 30 uL/min in PBS-P, 25°C; 1:1 Langmuir fit
pKd: −log10 of the molar value.
readout type: pKd

INSERT INTO measurements (binder, quantitative_readout) VALUES
  ('flaB mutant F6 (E122, Glu to Ala) (natural protein) MAINVSTNVSAMTAQRYLNNAADGTQKSMERLSSGYKINSARDDAAGLQISNRLTSQSRGLDMAVRNANDGISIAQTAEGAMNETTNILQRMRDLSLQSANGSNSSSERQAIQEEVSALNDALNRIAETTSFGGNKLLNGSFGNKSFQIGADSGEAVMLSMSDMRSDTKAMGGKSYVATNGKAPDWSVTNATDLTLSYTDKQGEAREVTINAKAGDDLEEVATYINGQNGDIKASVGDEGKLQLFAANQKVSSDVTIGGGLGTEIGFAAGKDVTVKDINVTTVGGSQEAVALIDGALKAVDSQRASLGAFQNRFGHAISNLDNINENVNASRSRIKDTDYARETTQMTKSQILQQASTSVLAQAKQSPSAALSLLG', 5.36);
